target desc: androgen receptor (AR) (Homo sapiens)
test summary: Degradation of androgen receptor (AR) protein in VCaP cells by ELISA
Format: cell-based
measurement setup: VCaP, AR degradation, VCaP cells, 16 h, ELISA, Table 3-1; read-out: Dmax (%)
Measured Dmax, listed per entry for reference.

Some entries whose results are on file:
- N#Cc1ccc(O[C@H]2CC[C@H](NC(=O)c3ccc(N4CCC(CN5CCC6(CC5)CN(c5ccc7c(c5)C(=O)N(C5CCC(=O)NC5=O)C7=O)C6)CC4)cc3)CC2)cc1Cl (stereo partly drawn) [Compound 192]: > 80%
- N#Cc1ccc(O[C@H]2CC[C@H](NC(=O)c3ncnn3[C@H]3CC[C@H](CN4CCC5(CC4)CN(c4cc6c(cc4F)C(=O)N(C4CCC(=O)NC4=O)C6=O)C5)CC3)CC2)cc1Cl (stereo partly drawn) [Compound 87]: 40 to 60%

Now look at this one.
Looking for the measured Dmax of N#Cc1ccc(O[C@H]2CC[C@H](NC(=O)c3cn([C@H]4CC[C@H](CN5CCC6(CC5)CN(c5cc7c(cc5F)C(=O)N(C5CCC(=O)NC5=O)C7=O)C6)CC4)nn3)CC2)cc1Cl (stereo partly drawn) [Compound 115] , can you help?
> 80%

* * *

target desc: androgen receptor (AR) (Homo sapiens)
Sequence (P10275 1-920): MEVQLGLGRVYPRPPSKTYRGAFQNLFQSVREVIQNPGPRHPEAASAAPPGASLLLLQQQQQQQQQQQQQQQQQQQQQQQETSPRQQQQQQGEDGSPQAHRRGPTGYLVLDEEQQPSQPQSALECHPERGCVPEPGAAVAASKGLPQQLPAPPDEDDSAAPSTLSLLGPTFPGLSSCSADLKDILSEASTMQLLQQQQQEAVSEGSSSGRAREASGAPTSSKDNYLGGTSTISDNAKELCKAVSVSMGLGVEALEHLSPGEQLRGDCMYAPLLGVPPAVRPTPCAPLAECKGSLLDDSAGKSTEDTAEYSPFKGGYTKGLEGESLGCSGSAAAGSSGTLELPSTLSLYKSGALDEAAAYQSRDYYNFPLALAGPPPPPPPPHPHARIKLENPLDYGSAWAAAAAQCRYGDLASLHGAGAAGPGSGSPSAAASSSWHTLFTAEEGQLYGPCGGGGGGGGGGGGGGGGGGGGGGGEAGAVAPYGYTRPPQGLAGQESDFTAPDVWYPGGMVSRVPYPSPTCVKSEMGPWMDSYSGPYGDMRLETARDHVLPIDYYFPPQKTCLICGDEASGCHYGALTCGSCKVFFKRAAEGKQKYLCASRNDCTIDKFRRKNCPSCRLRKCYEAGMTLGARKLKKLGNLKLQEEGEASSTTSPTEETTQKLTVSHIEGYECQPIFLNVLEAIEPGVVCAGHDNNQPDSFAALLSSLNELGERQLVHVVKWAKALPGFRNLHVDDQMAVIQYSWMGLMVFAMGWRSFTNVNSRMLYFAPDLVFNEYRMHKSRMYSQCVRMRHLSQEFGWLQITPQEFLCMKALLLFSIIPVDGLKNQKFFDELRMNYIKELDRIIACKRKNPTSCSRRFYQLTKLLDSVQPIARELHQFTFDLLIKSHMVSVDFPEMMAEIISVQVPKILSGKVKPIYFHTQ
test summary: Degradation of androgen receptor (AR) protein in VCaP cells by ELISA
Format: cell-based
measurement setup: VCaP, AR degradation, VCaP cells, 16 h, ELISA, Table 3-1; read-out: Dmax (%)
Measured Dmax, listed per entry for reference.

Some entries whose results are on file:
* CC1(C)[C@H](Oc2ccc(C#N)c(Cl)c2)C(C)(C)[C@H]1N1Cc2nc(C#CC3CN(C4CN(c5cc6c(cc5F)C(=O)N(C5CCC(=O)NC5=O)C6=O)C4)C3)ccc2C1=O (stereo partly shown) | 60 to 80%
* CC1(C)[C@H](Oc2ccc(C#N)c(Cl)c2)C(C)(C)[C@H]1N1Cc2nc(C#CC3CCC(N4CC5(CN(c6cc7c(cc6F)C(=O)N(C6CCC(=O)NC6=O)C7=O)C5)C4)CC3)ccc2C1=O (stereo partly shown) | 60 to 80%

Looking for the measured Dmax of N#Cc1ccc(O[C@H]2CC[C@H](NC(=O)c3cnc(N4CCC(N5CCC6(CC5)CN(c5ccc7c(c5)C(=O)N(C5CCC(=O)NC5=O)C7=O)C6)CC4)cn3)CC2)cc1Cl (stereo partly shown) , can you help?
> 80%

Looking for the measured Dmax of CC1(C)[C@H](Oc2ccc(C#N)c(Cl)c2)C(C)(C)[C@H]1N1Cc2nc(C#CC3CCC(N4CC5CN(c6cc7c(cc6F)C(=O)N(C6CCC(=O)NC6=O)C7=O)CC5C4)CC3)ccc2C1=O (stereo partly shown) , can you help?
> 80%

Looking for the measured Dmax of N#Cc1ccc(O[C@H]2CC[C@H](NC(=O)c3ccc(N4CCC5(CCN(C6CCN(c7cc8c(cc7F)C(=O)N(C7CCC(=O)NC7=O)C8=O)CC6)C5)C4)nn3)CC2)cc1Cl (stereo partly shown) , can you help?
> 80%

Looking for the measured Dmax of N#Cc1ccc(O[C@H]2CC[C@H](NC(=O)c3cnc(N4CCC5(CC4)CN(CC4CCN(c6cc7c(cc6F)C(=O)N(C6CCC(=O)NC6=O)C7=O)CC4)C5)cn3)CC2)cc1Cl (stereo partly shown) , can you help?
> 80%

Looking for the measured Dmax of N#Cc1ccc(O[C@H]2CC[C@H](NC(=O)c3ccc(N4CCC5(CCN(CC6CCN(c7cc8c(cc7F)C(=O)N(C7CCC(=O)NC7=O)C8=O)CC6)CC5)CC4)nn3)CC2)cc1Cl (stereo partly shown) , can you help?
> 80%

Looking for the measured Dmax of N#Cc1ccc(O[C@H]2CC[C@H](NC(=O)c3ccc(N4CCC(N5CC6(CCN(c7cc8c(cc7F)C(=O)N(C7CCC(=O)NC7=O)C8=O)CC6)C5)CC4)nc3)CC2)cc1Cl (stereo partly shown) , can you help?
> 80%

Looking for the measured Dmax of N#Cc1ccc(O[C@H]2CC[C@H](NC(=O)c3ccc(N4CCC(N5CCC6(CC5)CN(c5ccc7c(c5)C(=O)N(C5CCC(=O)NC5=O)C7=O)C6)CC4)nn3)CC2)cc1Cl (stereo partly shown) , can you help?
> 80%

Looking for the measured Dmax of N#Cc1ccc(O[C@H]2CC[C@H](NC(=O)c3cnn([C@H]4CC[C@H](CN5CCC6(CC5)CN(c5ccc7c(c5)C(=O)N(C5CCC(=O)NC5=O)C7=O)C6)CC4)n3)CC2)cc1Cl (stereo partly shown) , can you help?
> 80%
